Test: Time taken to achieve Cmax in tumor of athymic nude mouse xenografted with human MIAPaCa2 cells at > 10 mg/kg, po administered as single dose
Assay type: ADME, organism-based, Neoplasm
Details: read-out: tCmax (converted)
MEASUREMENT_TYPE: Tmax (min)
Quick reminder: number only, in min, skip the unit.

Complete the entry with Tmax for C=CC(=O)N1CCN(c2nc(=O)n(-c3c(C)ccnc3C(C)C)c3nc(-c4c(O)cccc4F)c(F)cc23)[C@@H](C)C1 [SOTORASIB]
30

* * *

Assay: Intrinsic clearance in mouse cryopreserved hepatocytes assessed per 10^6 cells at 0.5 uM measured upto 60 mins by LCMS analysis
Type: ADME, cell-based, Hepatocyte
Details: read-out: CLH
MEASUREMENT_TYPE: hepatocyte CLint at 0.5 µM (µL/min/1e6 cells)
Report the figure in µL/min/1e6 cells without appending any unit label.

C=CC(=O)N1CCN(c2nc(=O)n(-c3ccccc3C(C)C)c3cc(-c4ccccc4F)c(Cl)cc23)CC1 ... 415
C=CC(=O)N1CCN(c2nc(=O)n(-c3ccccc3C(C)C)c3nc(-c4ccccc4Cl)c(Cl)cc23)[C@@H](C)C1 ... 319
C=CC(=O)N1CCN(c2nc(=O)n(-c3ccccc3C(C)C)c3cc(-c4c(C)ccc5[nH]ncc45)c(Cl)cc23)CC1 ... 180
C=CC(=O)N1CCN(c2nc(=O)n(-c3ccccc3C(C)C)c3nc(-c4ccccc4F)c(Cl)cc23)[C@@H](C)C1 ... 236
C=CC(=O)N1CCN(c2nc(=O)n(-c3c(C(C)C)ccnc3C)c3nc(-c4c(O)cccc4F)c(F)cc23)[C@@H](C)C1 ... 100
C=CC(=O)N1CCN(c2nc(=O)n(-c3c(C)ncnc3C(C)C)c3nc(-c4c(O)cccc4F)c(Cl)cc23)[C@@H](C)C1 ... 139
C=CC(=O)N1CCN(c2nc(=O)n(-c3c(C)cccc3C(C)C)c3nc(-c4c(O)cccc4F)c(Cl)cc23)[C@@H](C)C1 ... 102
C=CC(=O)N1CCN(c2nc(=O)n(-c3c(C)ncnc3C(C)C)c3nc(-c4c(O)cccc4F)c(F)cc23)[C@@H](C)C1 ... 65

// Input: `C=CC(=O)N1CCN(c2nc(=O)n(-c3ccccc3C(C)C)c3cc(-c4ccccc4Cl)c(Cl)cc23)[C@@H](C)C1` . Output its hepatocyte CLint at 0.5 µM only.
397

Answer with the recorded hepatocyte CLint at 0.5 µM for the compound listed here: `C=CC(=O)N1CCN(c2nc(=O)n(-c3ccccc3C(C)C)c3nc(-c4ccccc4O)c(Cl)cc23)[C@@H](C)C1`
288

Please report hepatocyte CLint at 0.5 µM for the following compound: `C=CC(=O)N1CCN(c2nc(=O)n(-c3ccccc3C(C)C)c3cc(-c4ccccc4F)c(Cl)cc23)[C@@H](C)C1`
356

Check the records and state hepatocyte CLint at 0.5 µM for `C=CC(=O)N1CCN(c2nc(=O)n(-c3ccccc3C(C)C)c3cc(-c4c(O)cccc4F)c(Cl)cc23)[C@@H](C)C1`
263

Give a short answer stating reported hepatocyte CLint at 0.5 µM for `C=CC(=O)N1CCN(c2nc(=O)n(-c3ccccc3C(C)C)c3cc(-c4ccccc4C(F)(F)F)c(Cl)cc23)[C@@H](C)C1` .
270

Please report hepatocyte CLint at 0.5 µM for the following compound: `C=CC(=O)N1CCN(c2nc(=O)n(-c3c(C)ccnc3C(C)C)c3nc(-c4c(O)cccc4F)c(Cl)cc23)[C@@H](C)C1`
75

Name the recorded hepatocyte CLint at 0.5 µM of the item `C=CC(=O)N1CCN(c2nc(=O)n(-c3ccccc3C(C)C)c3nc(-c4c(O)cccc4F)c(Cl)cc23)CC1` in your answer.
109

Identify hepatocyte CLint at 0.5 µM associated with the compound `C=CC(=O)N1CCN(c2nc(=O)n(-c3c(C(C)C)ccnc3C)c3nc(-c4c(O)cccc4F)c(Cl)cc23)[C@@H](C)C1`
96

Answer with reported hepatocyte CLint at 0.5 µM of `C=CC(=O)N1CCN(c2nc(=O)n(-c3ccccc3C(C)C)c3cc(-c4c(O)cccc4F)c(Cl)cc23)CC1`
195

Supply hepatocyte CLint at 0.5 µM value. Item: C=CC(=O)N1CCN(c2nc(=O)n(-c3c(C)ccnc3C(C)C)c3nc(-c4c(O)cccc4F)c(F)cc23)[C@@H](C)C1 [SOTORASIB]
36

Look up hepatocyte CLint at 0.5 µM of C=CC(=O)N1CCN(c2nc(=O)n(-c3ccccc3C(C)C)c3nc(-c4c(O)cccc4F)c(Cl)cc23)[C@@H](C)C1 (stereo in doubt; (R)-18) and report it.
119

Tell me its hepatocyte CLint at 0.5 µM given `C=CC(=O)N1CCN(c2nc(=O)n(-c3c(C)cccc3C(C)C)c3nc(-c4c(O)cccc4F)c(F)cc23)[C@@H](C)C1` as the entry.
111
